Attribution: patent US11464726B2

Field: Mean variations in % of hydration. Provide a value for each of the compounds that follow.
test system: surface layers of the skin (superficial stratum corneum); test: Moisturizing efficiency of gel evaluated by corneometry; assay type: in vivo, human; details: T1 h vs T0; (T…h-T0)/T0*100; gel 6% by weight
Respond numerically; units are % and should not be typed.

Tested on surface layers of the skin (superficial stratum corneum), the item OC[C@@H](O)[C@H](O)[C@@H](O)CO showed Mean variations in % of hydration equal to 20.5

Tested on surface layers of the skin (superficial stratum corneum), the item C[N+](C)(C)CC(=O)O showed Mean variations in % of hydration equal to 28.2

Simply: O[C@@H]1CO[C@H]2[C@@H]1OC[C@@H]2O [Isosorbide, 1,4:3,6-dianhydrosorbitol] , surface layers of the skin (superficial stratum corneum), Mean variations in % of hydration = 21.6

// assay surface layers of the skin (superficial stratum corneum), entry OC[C@@H](O)[C@@H](O)[C@H](O)[C@@H](O)CO , Mean variations in % of hydration value = 11.4

Short answer on surface layers of the skin (superficial stratum corneum) for OCC(O)CO , Mean variations in % of hydration: 35.7
